Where these numbers come from: patent US20230348614A1

Molecular target: T1, Recombinant soluble human CD138 extracellular domain (analyte in SPR) (human, UniProt P18827 23-254)
T1 construct: extracellular domain; also called recombinant CD138 (the antigen)
T1 sequence (looked up): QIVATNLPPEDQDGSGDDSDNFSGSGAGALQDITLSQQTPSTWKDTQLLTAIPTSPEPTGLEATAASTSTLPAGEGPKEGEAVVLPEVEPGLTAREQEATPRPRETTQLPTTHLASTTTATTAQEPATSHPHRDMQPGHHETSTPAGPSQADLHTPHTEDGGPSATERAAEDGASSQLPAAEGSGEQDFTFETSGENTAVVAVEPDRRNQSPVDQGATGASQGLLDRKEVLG
Test: SPR (Carterra LSA): antibody captured by anti-human IgG, CD138 as analyte, pH 6.0, 1:1 fit; pH 6.0, SPR
Description: This method as described, immobilizes the target (recombinant CD138) through biotinylation-streptavidin capture. Such a method may, in principle, lead to biases in binding due to either chemical modification of the capture ligand and/or avidity effects due to immobilization of this ligand on the biosensor. […] Antibody-CD138 binding was evaluated on a Carterra LSA high throughput SPR instrument. […] Kinetic data was analysed using a global fit and assuming a 1:1 binding interaction. […]
Assign kon to each entry below.
Give bare numbers, in M⁻¹ s⁻¹.

A selection of reference data follows.
>>> measured_result("Antibody Ab17 (antibody, V domains shown, also called mAb 17; Mab 17) VH: EVQLVQSGAEVKKPGASVKVSCKASGYSFSSYYMHWVRQAPGQGLEWMGTIHPSDSTTNYNQKFQGRVTMTVDTSTRTAYMELSSLRSEDTAVYYCADFVYWGQGTTVTVSS VL: DIVMTQTPLSLSVTPGQPASISCKSSKSLLYKDGHTYLNWFLQKPGQSPQLLIYVVSTRASGVPDRFSGSGSGTDFTLKISRVEAEDVGVYYCQQLVEYPYTFGQGTKLEIK")
170000
>>> measured_result("Antibody Ab137 (antibody, V domains shown) VH: QVQLVQSGAEVKKPGASVKVSCKASGYSFSSYYMHWVRQAPGQGLEWMGTIHPSDSTTNYNQKFQGRVTMTVDTSTRTAYMELSSLRSEDTAVYYCANFVYWGQGTTVTVSS VL: DIVMTQTPLSLSVTPGQPASISCKSSKSLLYKDGKTYLNWFLQKPGQSPQLLIDVVSTRASGVPDRFSGSGSGTDFTLKISRVEAEDVGVYYCQQLVEYPYTFGQGTKLEIK")
180000

Incoming: Report kon for Antibody Ab28 (antibody, V domains shown, also called Mab 28) VH: EVQLVQSGAEVKKPGASVKVSCKASGYSFSSYYMHWVRQAPGQGLEWMGTIYPGDSTTNYNQKFQGRVTMTVDTSTRTAYMELSSLRSEDTAVYYCADFVYWGQGTTVTVSS VL: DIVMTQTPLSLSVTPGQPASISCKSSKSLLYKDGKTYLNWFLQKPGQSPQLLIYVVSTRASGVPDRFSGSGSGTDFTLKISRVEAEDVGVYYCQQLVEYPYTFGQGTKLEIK please.
Outgoing: 220000
